Test system: RAW-Dual (murine macrophage reporter line)
method description: IRF reporter (Lucia luciferase) activity fold change vs agonist alone; higher = enhanced IRF activity
setup conditions: modulator concentration 10 µM; agonist: LPS 0.1 ug/mL
Entries and their measured IRF reporter follow.

{"molecule": "O=C(NCCC(CCO)c1ccccc1)Nc1c(F)cccc1F (stereo not given)", "IRF reporter": 1.05}
{"molecule": "COc1cccc2c1C(=O)c1c(O)c3c(c(O)c1C2=O)C[C@@](O)(C(=O)CO)C[C@@H]3O[C@H]1C[C@H](N)[C@H](O)[C@H](C)O1.Cl", "IRF reporter": 0.0915}
{"molecule": "Cc1cc(OCC(=O)NCCn2nc(C3CC3)ccc2=O)cc(C)c1Cl", "IRF reporter": 0.823}
{"molecule": "COc1cccc(-n2c(SCc3ccc(F)cc3)nc3c([nH]c4ccccc43)c2=O)c1", "IRF reporter": 1.33}
{"molecule": "Cc1ccc(O)c(N=Nc2ccc(S(=O)(=O)O)cc2)c1", "IRF reporter": 1.08}
{"molecule": "Cc1cnc(Nc2ccc(OCCN3CCCC3)cc2)nc1Nc1cccc(S(=O)(=O)NC(C)(C)C)c1", "IRF reporter": 0.0391}
{"molecule": "COc1c(C)c2c(c(O)c1C/C=C(\\C)CCC(=O)O)C(=O)OC2", "IRF reporter": 1.13}
{"molecule": "Oc1c2c(nc3cc(-c4ccc(Br)cc4)nn13)CCS2", "IRF reporter": 1.19}
{"molecule": "COc1ccc(CN(CCN(C)C)c2ccccn2)cc1", "IRF reporter": 0.912}
{"molecule": "CN1CCN(CCCN2c3ccccc3Sc3ccc(C(F)(F)F)cc32)CC1.Cl.Cl", "IRF reporter": 1.12}
